- testedSystem: MKNK1 (Homo sapiens, UniProt Q9BUB5, T385D)
- Construct: GST (N); purchased Carna Biosciences 02-145; host or cells: insect cells (baculovirus expression system)
- Sequence (Q9BUB5 1-424 isoform Q9BUB5-2 T344D): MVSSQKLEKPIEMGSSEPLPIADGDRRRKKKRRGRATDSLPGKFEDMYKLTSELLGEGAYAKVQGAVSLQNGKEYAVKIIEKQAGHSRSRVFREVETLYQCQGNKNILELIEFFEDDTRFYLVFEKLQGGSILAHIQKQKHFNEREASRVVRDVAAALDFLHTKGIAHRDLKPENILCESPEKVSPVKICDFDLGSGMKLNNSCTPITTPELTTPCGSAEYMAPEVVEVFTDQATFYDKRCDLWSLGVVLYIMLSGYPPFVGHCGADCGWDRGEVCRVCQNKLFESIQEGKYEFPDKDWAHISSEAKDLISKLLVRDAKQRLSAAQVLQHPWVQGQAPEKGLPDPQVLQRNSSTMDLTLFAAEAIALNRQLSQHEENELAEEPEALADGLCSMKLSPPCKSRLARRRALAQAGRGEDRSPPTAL
- protocolNotes: MKNK1 kinase high ATP assay (TR-FRET)
- Format: biochemical
- testParameters: ATP final conc. 2 mM; 15 min pre-incubation; reaction time 30 min at 22°C
Reported IC50 values for a set of molecules
Give just the numeric value; nM need not be written.

Example entries and their recorded answers appear below.
{"molecule": "COc1cccc2oc(-c3cnc4ccc(OCCCN)nn34)cc12 [Example 4]", "testedSystem": "MKNK1 (Homo sapiens, UniProt Q9BUB5, T385D)", "observedProperty": "IC50", "measurementUnits": "nM", "readoutValue": 15}
{"molecule": "COc1cccc2oc(-c3cnc4ccc(OCC(N)C5CC5)nn34)cc12 (centres unmarked) [Example 41]", "testedSystem": "MKNK1 (Homo sapiens, UniProt Q9BUB5, T385D)", "observedProperty": "IC50", "measurementUnits": "nM", "readoutValue": 27}
{"molecule": "COc1cccc2oc(-c3cnc4ccc(OCCCCN)nn34)cc12 [Example 1]", "testedSystem": "MKNK1 (Homo sapiens, UniProt Q9BUB5, T385D)", "observedProperty": "IC50", "measurementUnits": "nM", "readoutValue": 5}
{"molecule": "NCC(CN)Oc1ccc2ncc(-c3cc4ccccc4o3)n2n1 [Example 34]", "testedSystem": "MKNK1 (Homo sapiens, UniProt Q9BUB5, T385D)", "observedProperty": "IC50", "measurementUnits": "nM", "readoutValue": 92}

Measured IC50 of N[C@H]1CCC[C@@H]1Oc1ccc2ncc(-c3cc4ccccc4o3)n2n1 [Example 24] : 19
